Recorded pEC50 by entry
# Measured on: Recombinant human ASK1 kinase (Homo sapiens)
# Sequence (Q99683 1-1374): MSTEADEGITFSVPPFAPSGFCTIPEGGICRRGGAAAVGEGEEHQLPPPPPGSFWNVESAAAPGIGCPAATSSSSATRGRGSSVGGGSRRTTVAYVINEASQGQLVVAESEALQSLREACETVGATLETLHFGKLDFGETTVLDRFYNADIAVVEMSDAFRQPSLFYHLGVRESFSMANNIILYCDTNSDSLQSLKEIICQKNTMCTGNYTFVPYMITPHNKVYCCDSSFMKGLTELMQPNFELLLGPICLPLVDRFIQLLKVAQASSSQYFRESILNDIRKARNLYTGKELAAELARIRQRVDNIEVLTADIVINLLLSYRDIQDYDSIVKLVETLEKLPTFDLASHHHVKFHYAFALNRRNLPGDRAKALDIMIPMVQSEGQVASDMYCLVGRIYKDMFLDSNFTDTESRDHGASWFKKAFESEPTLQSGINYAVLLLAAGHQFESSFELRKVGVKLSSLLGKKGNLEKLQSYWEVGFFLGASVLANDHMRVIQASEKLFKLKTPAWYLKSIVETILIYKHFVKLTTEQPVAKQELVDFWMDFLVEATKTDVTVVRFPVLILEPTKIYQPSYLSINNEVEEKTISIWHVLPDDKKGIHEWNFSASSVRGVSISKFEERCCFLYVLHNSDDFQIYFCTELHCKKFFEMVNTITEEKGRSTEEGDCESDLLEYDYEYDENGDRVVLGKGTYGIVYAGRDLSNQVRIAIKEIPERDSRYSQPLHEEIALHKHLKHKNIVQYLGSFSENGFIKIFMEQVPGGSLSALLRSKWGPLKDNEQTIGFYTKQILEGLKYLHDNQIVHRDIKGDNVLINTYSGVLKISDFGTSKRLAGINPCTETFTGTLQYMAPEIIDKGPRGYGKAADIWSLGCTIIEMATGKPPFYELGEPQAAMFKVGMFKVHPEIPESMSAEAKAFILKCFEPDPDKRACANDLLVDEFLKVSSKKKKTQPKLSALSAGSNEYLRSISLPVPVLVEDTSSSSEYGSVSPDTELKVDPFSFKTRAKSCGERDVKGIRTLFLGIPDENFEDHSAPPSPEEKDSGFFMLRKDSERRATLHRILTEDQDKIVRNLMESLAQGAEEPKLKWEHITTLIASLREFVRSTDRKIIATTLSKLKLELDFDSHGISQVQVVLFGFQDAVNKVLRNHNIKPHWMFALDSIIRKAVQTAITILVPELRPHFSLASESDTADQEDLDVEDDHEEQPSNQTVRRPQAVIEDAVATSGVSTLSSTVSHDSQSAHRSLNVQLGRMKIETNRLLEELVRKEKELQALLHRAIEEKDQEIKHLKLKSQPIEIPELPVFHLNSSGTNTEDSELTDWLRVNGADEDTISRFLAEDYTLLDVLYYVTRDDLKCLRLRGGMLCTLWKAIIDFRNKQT
# Measurement protocol: ASK1 kinase HTRF assay (KinEASE-STK)
# Particulars: HTRF detection; 3 nM ASK1 kinase, 1 uM STK-substrate-biotin
pEC50: −log10 of the molar value.

CNc1ccc(-c2cnc(-c3cccc(-c4nncn4C(C)C)n3)o2)cc1 [Compound I-060]	≥ 7.30

Data request: Please look at this compound and report its pEC50: CC(C)n1cnnc1-c1cccc(-c2ncc(-c3cccc(N4CCC(N5CCOCC5)CC4)c3)o2)n1 [Compound I-122]
Data returned: 6.30 to 7.30

Data request: Tell me measured pEC50 for CC(C)n1cnnc1-c1cccc(-c2ncc(-c3cccc(C4=CCCC4)c3)o2)n1 [Compound I-134] please.
Data returned: 6.30 to 7.30

Data request: Fill in pEC50 for record COC(=O)c1ccc(-c2cnc(-c3cccc(-c4nncn4C(C)C)n3)o2)cc1 [Compound I-093]
Data returned: 6.30 to 7.30

Data request: Using known records, supply pEC50 for CC(C)n1cnnc1-c1cccc(-c2ncc(-c3cccc(C(F)F)c3)o2)n1 [Compound I-087]
Data returned: 6.30 to 7.30

Data request: Tell us which pEC50 value is on record for CC(C)n1cnnc1-c1cccc(-c2ncc(-c3cccc(-c4cccnc4)c3)o2)n1 [Compound I-107]
Data returned: ≥ 7.30
